- System: Wnt5a (protein binding on small-molecule microarray)
- Test Details: small molecules binding Wnt5a protein – biophysical, small-molecule microarray, 635/667 nm fluorescence, primary screen (AID 1142);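 note: fluorescence read at 667 nm with signal to noise per printed feature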
- Experimental Setup: 635 nm fluorescence, higher = more signal
Rule: composite z-score under 0.5 gives 0, otherwise 1.

[
  {
    "Compound": "CC(C)=CCCC(C)=CC(O)C1C=CC2C(=O)N(c3ccccc3)C(=O)C2N1Nc1ccc([N+](=O)[O-])cc1 (configuration not stated)",
    "Label Value": 0
  },
  {
    "Compound": "C=CCC(OC(C)=O)[C@@H]1[C@@H](N(Cc2ccc(-c3cccc(C(F)(F)F)c3)o2)C(=O)c2cccc3ccccc23)c2cc(OCCCO)ccc2N1C(=O)c1ccc(-c2ccccc2)cc1 (some centres not stated)",
    "Label Value": 0
  },
  {
    "Compound": "C[N+](C)(C)CCCCCCNC(=O)[C@H]1C[C@H]2C(=O)N3CCC[C@H]3C(=O)N2[C@H]1c1cccc(OCCO)c1",
    "Label Value": 1
  },
  {
    "Compound": "CO[C@H]1O[C@H](CO)[C@@H](OC(=O)Nc2ccc(C(F)(F)F)cc2)[C@H](OC(=O)Nc2ccccc2)[C@H]1OC(=O)Nc1ccccc1",
    "Label Value": 1
  },
  {
    "Compound": "COC(=O)[C@@]1(Cc2ccc(OC)cc2)[C@H]2c3cc(C(=O)N(C)C)n(CCF)c3C[C@H]2CN1C(=O)c1ccccc1",
    "Label Value": 0
  },
  {
    "Compound": "COCC1=C([C@H](O)CCc2ccccc2)[C@H](CO)[C@@H]2C(=O)N(C)C(=O)[C@@H]2C1",
    "Label Value": 0
  },
  {
    "Compound": "COc1ccccc1CN1C(=O)c2ccccc2[C@@H](C(=O)NCC(C)C)[C@@H]1c1ccc(CO)cc1",
    "Label Value": 1
  }
]

All figures here come from PubChem BioAssay.
